test system: Nav1.5; experiment: Patch-clamp (voltage clamp) recording of VGSC current in HEK cells stably expressing Nav1.5; details: read-out: IC50 (VGSC inhibition); prepulse −120 mV
measurement-kind: pIC50
One number for each entry, as −log10 of the molar value.

input: State the recorded pIC50 for this entry: CCOC(=O)C(C)(C)Oc1ccc(Cl)cc1 [Clofibrate]
output: 2.98

###

test system: Nav1.5; assay: Patch-clamp (voltage clamp) recording of VGSC current in HEK cells stably expressing Nav1.5; details: read-out: IC50 of inhibition of VGSC current (INa, step −100 mV to −20 mV, Hill plot); prepulse −100 mV
measurement-kind: pIC50
Numbers only, as −log10 of the molar value.

input: Form field - read-out: pIC50; system: Nav1.5; submitted item: `Brc1c(Br)c(Br)c2[nH]nnc2c1Br`
output: 4.80
